Answer each item with its documented ADC potency, IC50 (nM), Molt-4 growth inhibition.
- Study Target: T1, Human CD98, endogenous on HCC38, Molt-4 and Jurkat human cancer cells (human)
- T1 chain: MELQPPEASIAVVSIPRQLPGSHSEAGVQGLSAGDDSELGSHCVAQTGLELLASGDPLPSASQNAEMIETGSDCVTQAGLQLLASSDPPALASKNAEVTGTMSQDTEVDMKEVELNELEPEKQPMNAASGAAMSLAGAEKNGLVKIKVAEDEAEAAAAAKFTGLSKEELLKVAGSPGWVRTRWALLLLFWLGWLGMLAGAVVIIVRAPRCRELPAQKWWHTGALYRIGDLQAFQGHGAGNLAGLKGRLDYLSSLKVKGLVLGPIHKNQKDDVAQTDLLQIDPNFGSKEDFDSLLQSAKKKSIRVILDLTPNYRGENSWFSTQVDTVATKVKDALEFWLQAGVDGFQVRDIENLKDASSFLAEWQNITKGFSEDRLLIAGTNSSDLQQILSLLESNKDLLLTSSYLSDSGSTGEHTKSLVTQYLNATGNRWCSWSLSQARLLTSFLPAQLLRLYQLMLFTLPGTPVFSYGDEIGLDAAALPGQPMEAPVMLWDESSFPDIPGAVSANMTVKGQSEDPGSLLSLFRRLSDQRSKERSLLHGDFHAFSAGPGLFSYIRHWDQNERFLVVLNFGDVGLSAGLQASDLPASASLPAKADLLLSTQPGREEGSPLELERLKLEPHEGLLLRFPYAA
- Assay Method Text: cell-based or functional assay
Just so you know, I need the unit written after the number.

Could you share which ADC potency, IC50 (nM), Molt-4 growth inhibition value was measured for Ab10-CZ (Ab10 conjugated to Bcl-xL inhibitor synthon CZ) (antibody, V domains shown) VH: EVQLVESGGGLVQPGRSLKLSCAASGFTFSDYAMAWVRQAPKKSLEWVATIIYDGRGTYCRDSVKGRFTISRDNAKSTLYLQMDSLRSEDTATYYCARQGDGTYHYWGYFDYWGQGVMVTVSS VL: DIVMTQSPSSLAVSAGETVTINCKSSQSLLSSGNQKNYLAWYQQKPGQSPKLLIYWASTRQSGVPDRFIGSGSGTDFTLTISSVQAEDLAIYYCQQYYDTPYTFGAGTKVDLK ?
0.047 nM

Proceed to Ab3-CZ (Ab3 conjugated to Bcl-xL inhibitor synthon CZ) (antibody, V domains shown) VH: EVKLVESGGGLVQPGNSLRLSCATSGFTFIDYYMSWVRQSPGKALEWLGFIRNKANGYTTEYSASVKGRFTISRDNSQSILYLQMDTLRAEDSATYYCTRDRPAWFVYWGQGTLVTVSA VL: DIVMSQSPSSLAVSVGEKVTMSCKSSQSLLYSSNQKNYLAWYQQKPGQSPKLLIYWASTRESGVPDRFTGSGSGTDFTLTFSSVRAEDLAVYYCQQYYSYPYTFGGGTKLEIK
0.031 nM

The values you see were collected from patent US20200121803A1.
